Assayed Target: T1, human glucagon receptor (human, UniProt P47871 26-477)
T1 construct: whole, on cells; cAMP assay: transfected HEK293 cells
T1 sequence (P47871 26-477): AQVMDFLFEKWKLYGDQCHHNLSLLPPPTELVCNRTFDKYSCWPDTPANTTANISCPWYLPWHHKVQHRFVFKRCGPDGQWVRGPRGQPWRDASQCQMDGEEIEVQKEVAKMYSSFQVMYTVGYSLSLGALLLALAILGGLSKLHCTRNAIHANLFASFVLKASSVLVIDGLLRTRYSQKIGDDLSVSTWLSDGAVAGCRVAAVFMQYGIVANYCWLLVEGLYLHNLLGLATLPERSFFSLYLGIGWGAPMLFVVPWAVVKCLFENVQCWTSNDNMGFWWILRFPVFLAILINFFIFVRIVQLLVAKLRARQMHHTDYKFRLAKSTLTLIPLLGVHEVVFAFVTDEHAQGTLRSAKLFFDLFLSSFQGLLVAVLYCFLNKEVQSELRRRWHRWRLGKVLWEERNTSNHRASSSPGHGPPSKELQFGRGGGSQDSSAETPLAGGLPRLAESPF
Method Summary: SPA competition vs 125I-glucagon, receptor membranes
pIC50: −log10 of the molar value. Square brackets hold non-standard residues; d marks the D form. Ends that are not written are not given here. Abu(4-SO3H) = N[C@@H](CCS(=O)(=O)O)C(=O)O; PhLac = O=C(O)[C@@H](O)Cc1ccccc1
Readout Label: pIC50

• [PhLac]TSEYSKYLDSRRAQDFVQWLMNT-NH2 (also called [PLA6, E9]; G(6-29); [PLA6, E9]Glucagon(6-29)) [[PLA^6, E^9]Glucagon(aa6-29)-NH2] = 7.91
• [PhLac]TS[Abu(4-SO3H)]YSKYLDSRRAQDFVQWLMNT-NH2 [[PLA^6, hCys(SO3)^9]Glucagon(aa6-29)-NH2] = 7.85
• FTSDYSKYLDSRRAQDFVQWLMDT (PLA at position 6; C-terminal amide, also called [PLA6, D9, D28]Glucagon(6-29)) [[PLA^6, D^9, D^28] Glucagon(aa6-29)-NH2] = 8.05
